Test system: Fibroblast
Assay: Multiplex assay against human fibroblast
Format: toxicity, cell-based
Conditions: 48 h, 10 µM, compound concentration 10 uM, replicate 1
property: Population Fragmented Nuclei (%)
Answer format: value, then unit.

>>> df
                                   molecule  assayedtarget  assayvalue
0  COc1c(C)cc(NC(=O)c2nn(Cc3ccc(F)cc3)c3c2CN(C(=O)c2ccc[nH]2)C[C@]3(C)C(N)=O)cc1C     Fibroblast         22%
1  CCOc1c2c(c(OCC)c3ncccc13)CN(c1ccc(CS(=O)(=O)NC(=O)Cc3ccccc3OC)cc1C)C2=O     Fibroblast         16%
2  CC1(COc2ccc3c(c2)ncn3-c2ccc3cccc(N4CCC(N)CC4)c3n2)COC1 [CRENOLANIB]     Fibroblast         16%
3  O=C(O)c1cc2ccccc2c(Cc2c(O)c(C(=O)O)cc3ccccc23)c1O [PAMOIC ACID]     Fibroblast         19%
4  Cc1ccc(C(C)(O)c2nc3ccccc3s2)c(C)c1 (stereo unspecified)     Fibroblast         22%

Ask: GET /values?readout=Population Fragmented Nuclei (%)&system=Fibroblast&item= O=S(=O)(c1ccccc1)c1cnc2c(N3CCNCC3)cccc2c1 [INTEPIRDINE]
Result: 23%

* * *

Below is a list of entries, each paired with its recorded Population Fragmented Nuclei (%) value.
System: U2OS
Test: Multiplex assay against U2OS
Type: toxicity, cell-based
Conditions: human, 48 h, 10 µM, compound concentration 10 uM, replicate 1
Give the number; % is assumed, so skip it.

>>> print(df.to_string())
                                   compound                          property  assayvalue
0  CSCC[C@H](NC=O)C(=O)N[C@@H](CC(C)C)C(=O)N[C@@H](Cc1ccccc1)C(=O)O  Population Fragmented Nuclei (%)          20
1  CSc1ccccc1N1CCN(CCCCCC(=O)NC2CCCc3ccccc32)CC1.Cl (stereo not given)  Population Fragmented Nuclei (%)          43
2  COc1cc(NC(=O)CCN2CCC(OC(=O)Nc3ccccc3-c3ccccc3)CC2)c(Cl)cc1CNC[C@H](O)c1ccc(O)c2[nH]c(=O)ccc12  Population Fragmented Nuclei (%)          41
3  CCOc1c2c(c(OCC)c3ncccc13)CN(c1ccc(CS(=O)(=O)NC(=O)Cc3ccccc3OC)cc1C)C2=O  Population Fragmented Nuclei (%)          19

Kindly consider the entry below.
Ask: Entry CC1(COc2ccc3c(c2)ncn3-c2ccc3cccc(N4CCC(N)CC4)c3n2)COC1 : reported Population Fragmented Nuclei (%) = ?
Result: 51

* * *

System: U2OS
Experiment: Multiplex assay against U2OS
Type: toxicity, cell-based
Details: human, 24 h, 10 µM, compound concentration 10 uM, replicate 1
Below is a list of entries, each paired with its recorded Population Normal (%) value.
Give the number; % is assumed, so skip it.

Ask: Entry Cl.Clc1ccc2nsnc2c1NC1=NCCN1 [TIZANIDINE HYDROCHLORIDE] : reported Population Normal (%) = ?
Result: 97

* * *

System: U2OS
Assay: Multiplex assay against U2OS
Assay type: toxicity, cell-based
Settings: human, 48 h, 10 µM, compound concentration 10 uM, replicate 1
Below is a list of entries, each paired with its recorded Population Normal (%) value.
Give the number; % is assumed, so skip it.

Example compounds with recorded Population Normal (%):
compound	property	unitOfMeasure	assayValue
O=C(O)c1cc2ccccc2c(Cc2c(O)c(C(=O)O)cc3ccccc23)c1O	Population Normal (%)	%	96
COc1c(C)cc(NC(=O)c2nn(Cc3ccc(F)cc3)c3c2CN(C(=O)c2ccc[nH]2)C[C@]3(C)C(N)=O)cc1C	Population Normal (%)	%	82
N#Cc1c(N)nc(SCc2csc(-c3ccc(Cl)cc3)n2)c(C#N)c1-c1ccc(OCCO)cc1	Population Normal (%)	%	94
CC[C@H]1OC(=O)[C@H](C)[C@@H](O[C@H]2C[C@@](C)(OC)[C@@H](O)[C@H](C)O2)[C@H](C)[C@@H](O[C@@H]2O[C@H](C)C[C@H](N(C)C)[C@H]2O)[C@@]2(C)CC(C)=C(O2)[C@H](C)[C@@H](O)[C@]1(C)O	Population Normal (%)	%	92
CC(=O)NCCc1c(Cc2ccccc2)[nH]c2ccccc12	Population Normal (%)	%	97

Ask: Entry CC(C)(C)c1ccc(S(=O)(=O)Nc2ccc(Cl)cc2C(=O)c2cc[n+]([O-])cc2)cc1 : reported Population Normal (%) = ?
Result: 98

Ask: Entry C[C@@H]1C[C@H]2[C@@H]3CCC4=CC(=O)C=C[C@]4(C)[C@@]3(F)[C@@H](O)C[C@]2(C)[C@@]1(O)C(=O)CO : reported Population Normal (%) = ?
Result: 97

Ask: Entry O=C(O)Cc1ccccc1Nc1c(Cl)cccc1Cl : reported Population Normal (%) = ?
Result: 97

Ask: Entry CN1CCN2c3ncccc3Cc3ccccc3C2C1 (stereo not given) : reported Population Normal (%) = ?
Result: 97

Ask: Entry Cc1ccc(F)cc1C(=O)Nc1ccc(C(=O)N2Cc3cccn3Cc3ccccc32)c(Cl)c1 : reported Population Normal (%) = ?
Result: 94

Reference source for all entries: ChEMBL document CHEMBL5058577
